Where these numbers come from: paper PMC6715688

List of pKd values.
tested-target: IniA (Mycolicibacterium smegmatis, UniProt I7FE16, K73A)
Sequence (I7FE16 entry or part of it K73A): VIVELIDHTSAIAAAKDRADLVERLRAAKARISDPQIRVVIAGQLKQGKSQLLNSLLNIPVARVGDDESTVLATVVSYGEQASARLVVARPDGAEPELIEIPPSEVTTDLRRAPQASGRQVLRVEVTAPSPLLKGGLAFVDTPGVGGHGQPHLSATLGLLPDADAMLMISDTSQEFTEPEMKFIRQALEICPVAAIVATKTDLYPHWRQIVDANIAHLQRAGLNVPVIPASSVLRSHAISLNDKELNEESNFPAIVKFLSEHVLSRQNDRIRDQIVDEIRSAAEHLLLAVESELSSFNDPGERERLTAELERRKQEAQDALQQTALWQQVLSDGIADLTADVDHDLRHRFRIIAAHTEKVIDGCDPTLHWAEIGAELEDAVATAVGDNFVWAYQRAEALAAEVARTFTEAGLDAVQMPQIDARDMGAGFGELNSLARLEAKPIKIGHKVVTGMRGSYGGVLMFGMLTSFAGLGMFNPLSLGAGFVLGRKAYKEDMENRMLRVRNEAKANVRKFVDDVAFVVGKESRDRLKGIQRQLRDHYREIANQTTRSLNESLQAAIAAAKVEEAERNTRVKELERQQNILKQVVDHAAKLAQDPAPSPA
experiment: isothermal titration calorimetry
pKd: −log10 of the molar value.

* Nc1nc2c(ncn2[C@@H]2O[C@H](COP(=O)(O)OP(=O)(O)O)[C@@H](O)[C@H]2O)c(=O)[nH]1 | ~5.97
* Nc1nc2c(ncn2[C@@H]2O[C@H](COP(=O)(O)OP(=O)(O)NP(=O)(O)O)[C@@H](O)[C@H]2O)c(=O)[nH]1 | ~4.63

Next up:
Request the reported pKd associated with Nc1nc2c(ncn2[C@@H]2O[C@H](COP(=O)(O)OP(=O)(O)OP(=O)(O)O)[C@@H](O)[C@H]2O)c(=O)[nH]1
~5.84
